Values were extracted from PubChem BioAssay (NCI).

growth inhibition values by entry
# experiment summary: NCI Yeast Anticancer Drug Screen. Data for the bub3 strain (AID 167)
# test settings: S. cerevisiae bub3 mutant strain, at 50.0 µM, stronger effect = higher value
Compounds without any hit were thinned out: in the full panel of roughly 79,000, 15% have a hit.
observable: growth inhibition (%)

molecule=Oc1ccc(/C=N/NC(=S)Nc2ccccc2)nc1 measured=84.3
molecule=C=C(c1ccccc1)[N+](=O)[O-] measured=99.3
molecule=O=Cc1cc(O)ccc1Br measured=89.3
molecule=CCCCCCn1c(SCC)c2ccccc2c1-c1nc(F)nc(F)n1 measured=88.5
molecule=CC(C)c1ccc(C(=O)OC2CCCCC2)cc1 measured=88.7
molecule=O=C1C(c2ccccc2)=[N+]([O-])c2ccccc21 measured=99.2
molecule="O=C(NCCN1CCN2Cc3[nH]c4ccccc4c3CC2C1)c1ccc(Cl)cc1 (stereo not drawn)" measured=50.5
molecule=CC(C)(C)C1=NC(=S)SC2=NC(=O)C3(NN21)c1ccccc1-c1ccccc13 measured=91
molecule="COc1ccc(/C=C2\\CCC(CN(C)C)C2=O)cc1 (stereo not drawn)" measured=92.6
molecule=O=C(CNC(=O)c1ccccc1)Oc1c(Cl)c(Cl)c(Cl)c(Cl)c1Cl measured=34
molecule=CCN(CC)CCCNc1ncc(C)c2c1c1ccc3c(O)cccc3c1n2C measured=-9.95
molecule=CC(=O)c1cc(-c2ccc(C)cc2)nc2c(C)cc(C)cc12 measured=95.2
molecule="COC(=O)C12CCC(=O)C(C)=C1CCC(OC)(OC)C2 (stereo not drawn)" measured=61.8
molecule="COc1ccc([C@H]2c3cc4c(cc3OC(O)(CO)[C@H]2C(=O)O)OCO4)c(OC)c1 (stereo partly drawn) (tested in a mixture with another compound)" measured=54.5
molecule=CCOC(=O)NCCCc1ccc2oc3ccccc3c2c1 measured=19.8
molecule=COC(=O)c1ccc(OC)cc1 measured=69.1
molecule=N#CSc1cc(SC#N)c2ccccc2c1N measured=81
molecule=CC1=C(C(=O)Nc2ccccc2)C(c2cccc([N+](=O)[O-])c2)C(C(=O)Nc2ccccc2)=C(C)N1 measured=35.4
molecule="CCC(c1ccc(O)cc1)C(CC)c1ccc(O)c(O)c1 (stereo not drawn)" measured=99.5
molecule="COc1cc2c(cc1O)C1Cc3ccc(OC)c(O)c3C(C2)N1C (stereo not drawn)" measured=-5.65
molecule=CC1=C(C(=O)Nc2ccccc2C)C(c2ccc(Cl)c(Cl)c2)C(C(=O)Nc2ccccc2C)=C(C)N1 measured=82
molecule=O=C(Nc1cc(Cl)cc(Cl)c1)OCCCl measured=92.6
molecule=Cn1cnc([N+](=O)[O-])c1Sc1nc2cccnc2s1 measured=71.8

###

In this section, each of the compounds is paired with its reported growth inhibition.
# experiment summary: NCI Yeast Anticancer Drug Screen. Data for the cln2 rad14 strain (AID 165);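 also: 0% = growth equal to vehicle treated cultures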
# test settings: S. cerevisiae cln2 rad14 strain, at 5.0 µM (retest, dose inferred, filed as 0.5), stronger effect = higher value
# Experimental: Growth inhibition of yeast strains with defined genetic alterations is measured as a screen for potential anti-cancer activity. Selected strains with alterations in DNA damage repair or cell cycle control were exposed to compounds and growth inhibition was measured relative to vehicle treated controls. The strain used in this assay is cln2 rad14
About 79,000 compounds went through this panel and 15% of them were active in at least one assay; those are over-represented in the sample as a whole.
observable: growth inhibition (%)

compound="COC(CCC[N+](C)(C)C)CC[N+](C)(C)C (stereo unspecified)" measured=1
compound=CSc1ccc(/C=N/NC(N)=S)cc1 measured=-65
compound="CCOC1Oc2ccccc2-c2nc(SC)ncc21 (stereo unspecified)" measured=26
compound=S=C(N/N=C(/c1ccccc1)c1ccccn1)Nc1cccc(Cl)c1 measured=25
compound=CCOc1ccc2c(c1)[n+]([O-])c(-c1ccc(Cl)cc1)c(N)[n+]2[O-] measured=34
compound="COc1ccc(C(=O)CC2(O)C(=O)N(C)c3c(Cl)cc(Cl)cc32)cc1 (stereo unspecified)" measured=-2
compound="CN(Cc1cnc2nc(N)nc(N)c2n1)c1ccc(C(=O)NC(CCC(=O)O)C(=O)O)cc1 (stereo unspecified)" measured=0
compound=NC(=O)c1nnn(Cc2cc(Cl)c(C(=O)c3ccc(Cl)cc3)c(Cl)c2)c1N measured=1
compound=CCOC1(OCC)Oc2c(Cl)c(Cl)c(Cl)c(Cl)c2OC1(OCC)OCC measured=16
compound="O=C1Sc2sc(=S)sc2SC1c1ccccc1 (stereo unspecified)" measured=-1
compound="CCCCOP(=O)(OCCCC)C(NS(=O)(=O)c1ccccc1)(C(=O)OCC)C(F)(F)F (stereo unspecified)" measured=16
